- Assayed Target: Calmodulin-1 (Homo sapiens)
- Method Summary: calcium-bound CALM1 binders on microarrays, profiling panel, artefact control for SMM control-protein annotation, biochemical, small-molecule microarray, Cy5-labelled CALM1, plus calcium (AID 1112);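 note: score merges spot fluorescence with signal to noise from triplicate slides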
- Stated Conditions: Cy5-CALM1 binding fluorescence, higher = more signal
Reported values of composite z-score for individual entries
Quantity Measured: composite z-score

Compound	Endpoint Value
CCCC[C@@H]1C[C@H]1[C@@H](NC(=O)c1cccs1)c1ccc(-c2ccccc2)cc1	0.295
C=CCOC(=O)[C@H]1[C@@H]2C(=O)O[C@@H](c3ccccc3)[C@@H](c3ccccc3)N2[C@@H](c2ccc(OCCOC(=O)[C@H]3C[C@H]4C(=O)N[C@@H](CCCCN(C)C)C(=O)N4[C@H]3c3ccc(O)cc3)cc2)[C@]12C(=O)Nc1ccc(I)cc12	-0.62
COCCCNC(=O)[C@@H]1c2ccccc2C(=O)N(Cc2ccccc2Cl)[C@H]1c1ccc(CO)cc1	-0.613
CN1C(=O)C2C=CC(C(O)c3ccco3)N(Nc3ccccc3)C2C1=O (stereo unspecified)	-0.833
COCCOC(=O)N1C(=O)[C@@]2(c3cc(C#CC4(O)CCCCCC4)ccc31)[C@H](c1ccccc1OCCO)N1[C@H](c3ccccc3)[C@H](c3ccccc3)OC(=O)[C@H]1[C@@H]2C(=O)N1CCN(c2ncccn2)CC1	-0.0855
C=C(CCCC)/C(=C/C[C@@H](OC(=O)c1ccncc1)c1ccc(OCCO)cc1)c1cc(C(=O)OC)ccc1OC	-0.959
C=C(CCCC)C(=O)CC[C@@H](OC(=O)c1ccccc1-c1ccccc1C(=O)O)c1ccc(OCCO)cc1	-0.559
CN1C(=O)C2C=CC(C(O)c3ccccc3)N(N(c3ccccc3)c3ccccc3)C2C1=O (stereo unspecified)	-0.717
Cc1ccc(S[C@]2(C(=O)NCCCN(C)C)CC(=O)N(Cc3cc(C(F)(F)F)cc(C(F)(F)F)c3)[C@@H]2c2ccc(CO)cc2I)cc1	0.764
COC(=O)[C@@]1(Cc2ccc(OC)cc2)[C@H]2c3cc(C(=O)N(C)C)n(Cc4ccccn4)c3C[C@H]2CN1C(=O)c1ccccc1	1.41
CC[C@@H]1C=C(C(=O)O)[C@H](c2ccc(Br)cc2)N1S(=O)(=O)c1ccc(C)cc1	0.244
COc1ccccc1CN1C(=O)c2ccccc2[C@@]2(Cc3ccccc3N(CC(C)C)C2=O)[C@@H]1c1ccc(CO)cc1	-0.69
COC(=O)C(CC#Cc1ccc2c(c1)[C@]1(C(=O)N2)[C@H](c2ccc(OCCO)cc2)N2[C@H](c3ccccc3)[C@H](c3ccccc3)OC(=O)[C@H]2[C@@H]1C(=O)N1CCc2cc(OC)c(OC)cc2C1)C(=O)OC	0.236
NC(=O)NCC#Cc1ccc2c(c1)[C@]1(C(=O)N2)[C@H](C(=O)Nc2nc3ccccc3s2)[C@H]2C(=O)O[C@H](c3ccccc3)[C@H](c3ccccc3)N2[C@@H]1c1ccccc1OCCO	0.579
COc1ccc(C(=O)Nc2ccc(CN3C(=O)[C@]4(O[C@H](CCO)[C@@H]([Si](C)(C)c5ccc(OC)cc5)[C@@H]4C)c4ccccc43)cc2)cc1	-0.314
O=C1c2ccccc2[C@](Cc2ccccc2I)(C(=O)NCCN2CCOCC2)[C@H](c2ccc(CO)cc2)N1Cc1ccccc1Cl	0.0568
